Values were extracted from ChEMBL document CHEMBL4312006.

- Target: UniProt P10635
- Sequence (P10635 whole entry): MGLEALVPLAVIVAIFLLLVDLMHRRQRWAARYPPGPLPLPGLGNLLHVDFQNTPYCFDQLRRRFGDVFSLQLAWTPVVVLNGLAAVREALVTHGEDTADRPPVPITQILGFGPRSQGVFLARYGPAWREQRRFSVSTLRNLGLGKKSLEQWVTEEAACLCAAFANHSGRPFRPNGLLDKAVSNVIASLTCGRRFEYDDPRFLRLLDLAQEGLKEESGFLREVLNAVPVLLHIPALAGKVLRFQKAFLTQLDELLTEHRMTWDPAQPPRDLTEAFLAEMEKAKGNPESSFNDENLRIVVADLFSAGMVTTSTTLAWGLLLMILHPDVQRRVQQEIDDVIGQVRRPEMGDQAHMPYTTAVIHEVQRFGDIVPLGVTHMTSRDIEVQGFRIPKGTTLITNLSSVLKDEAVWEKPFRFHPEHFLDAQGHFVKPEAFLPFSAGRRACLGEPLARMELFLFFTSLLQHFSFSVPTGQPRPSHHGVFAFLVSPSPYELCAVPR
- Assay name: Inhibition of CYP2D6 (unknown origin) assessed as remaining activity relative to control
- Assay type: ADME
Readout: activity

Prompt: Find the recorded activity belonging to CN1CCN(C(=O)COc2ccc(C(=O)/C=C/c3ccccc3C(F)(F)F)cc2)CC1.Cl and report it.
Response: > 100%

###

- Target: CYP3A4 (Homo sapiens, UniProt P08684)
- Sequence (P08684 whole entry): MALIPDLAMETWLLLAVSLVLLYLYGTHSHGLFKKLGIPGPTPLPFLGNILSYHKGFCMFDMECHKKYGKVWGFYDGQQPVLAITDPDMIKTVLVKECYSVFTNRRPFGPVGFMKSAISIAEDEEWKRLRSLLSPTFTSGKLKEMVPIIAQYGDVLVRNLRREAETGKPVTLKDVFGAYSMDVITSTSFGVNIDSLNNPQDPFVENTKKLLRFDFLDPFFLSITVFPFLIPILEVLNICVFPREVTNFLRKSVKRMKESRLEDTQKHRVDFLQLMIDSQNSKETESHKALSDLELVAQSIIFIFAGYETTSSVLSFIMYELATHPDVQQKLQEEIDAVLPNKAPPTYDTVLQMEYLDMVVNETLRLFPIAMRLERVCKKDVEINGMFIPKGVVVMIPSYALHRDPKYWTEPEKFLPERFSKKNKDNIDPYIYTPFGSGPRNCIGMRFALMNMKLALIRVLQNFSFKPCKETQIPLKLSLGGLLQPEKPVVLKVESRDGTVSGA
- Assay name: Inhibition of CYP3A4 (unknown origin) assessed as remaining activity relative to control
- Assay type: ADME
Readout: activity

Prompt: Find the recorded activity belonging to CN1CCN(C(=O)COc2ccc(C(=O)/C=C/c3ccccc3C(F)(F)F)cc2)CC1.Cl and report it.
Response: > 100%

###

- Target: CYP1A2 (Homo sapiens)
- Sequence (P05177 whole entry): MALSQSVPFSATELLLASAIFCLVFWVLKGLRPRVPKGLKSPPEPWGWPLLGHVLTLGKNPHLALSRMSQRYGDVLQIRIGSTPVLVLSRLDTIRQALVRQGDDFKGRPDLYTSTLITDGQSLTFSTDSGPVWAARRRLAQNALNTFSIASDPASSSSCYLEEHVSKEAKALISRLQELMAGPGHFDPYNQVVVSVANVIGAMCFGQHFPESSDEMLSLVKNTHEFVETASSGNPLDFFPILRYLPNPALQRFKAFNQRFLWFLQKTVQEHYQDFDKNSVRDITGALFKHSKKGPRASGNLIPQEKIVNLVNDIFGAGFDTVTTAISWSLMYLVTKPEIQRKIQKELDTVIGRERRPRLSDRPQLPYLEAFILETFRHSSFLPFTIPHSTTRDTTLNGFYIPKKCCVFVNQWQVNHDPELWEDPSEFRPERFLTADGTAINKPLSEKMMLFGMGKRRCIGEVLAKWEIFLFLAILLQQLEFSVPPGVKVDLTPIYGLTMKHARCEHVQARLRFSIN
- Assay name: Inhibition of CYP1A2 (unknown origin) assessed as remaining activity relative to control
- Assay type: ADME
Readout: activity (%)
Enter your answer as a number in %; do not include the unit.

Prompt: Find the recorded activity belonging to CN1CCN(C(=O)COc2ccc(C(=O)/C=C/c3ccccc3C(F)(F)F)cc2)CC1.Cl and report it.
Response: 98.5

###

- Assay name: Lipophilicity, log P of the compound
- Type: physicochemical
- Test context: octanol/water
Readout: logP
Quick one: just the number, no unit, thanks!

Prompt: Find the recorded logP belonging to CN1CCN(C(=O)COc2ccc(C(=O)/C=C/c3ccccc3C(F)(F)F)cc2)CC1.Cl and report it.
Response: 3.22

###

- Target: Nuclear factor erythroid 2-related factor 2 (Mus musculus)
- Assay name: Activation of NRF2 in mouse BV2 cells assessed as upregulation of HO1 at 20 uM by ELISA relative to control
- Format: cell-based
Record form. Attribute: Activity. Fill in for each entry.
Enter your answer as a number in %; do not include the unit.

Prompt: Find the recorded Activity belonging to COc1ccc(/C=C/C(=O)c2ccc(OCCCN3CCOCC3)cc2)cc1 and report it.
Response: 166

Prompt: Find the recorded Activity belonging to COc1ccccc1/C=C/C(=O)c1ccc(OCCCN2CCOCC2)cc1 and report it.
Response: 345

Prompt: Find the recorded Activity belonging to CN1CCN(C(=O)COc2ccc(C(=O)/C=C/c3ccccc3C(F)(F)F)cc2)CC1.Cl and report it.
Response: 589

Prompt: Find the recorded Activity belonging to COc1ccccc1/C=C/C(=O)c1ccc(OCCCN2CCN(C)CC2)cc1 and report it.
Response: 217

Prompt: Find the recorded Activity belonging to O=C(/C=C/c1ccccc1C(F)(F)F)c1ccc(OCCCN2CCOCC2)cc1 and report it.
Response: 351

Prompt: Find the recorded Activity belonging to O=C(/C=C/c1ccccn1)c1ccc(OCCCN2CCOCC2)cc1 and report it.
Response: 112

Prompt: Find the recorded Activity belonging to COc1ccccc1/C=C/C(=O)c1ccccc1OCCCN1CCOCC1 and report it.
Response: 146

Prompt: Find the recorded Activity belonging to COc1ccccc1/C=C/C(=O)c1ccc(OCCCN2CCCC2)cc1 and report it.
Response: 289

###

- Target: UniProt P33261
- Sequence (P33261 whole entry): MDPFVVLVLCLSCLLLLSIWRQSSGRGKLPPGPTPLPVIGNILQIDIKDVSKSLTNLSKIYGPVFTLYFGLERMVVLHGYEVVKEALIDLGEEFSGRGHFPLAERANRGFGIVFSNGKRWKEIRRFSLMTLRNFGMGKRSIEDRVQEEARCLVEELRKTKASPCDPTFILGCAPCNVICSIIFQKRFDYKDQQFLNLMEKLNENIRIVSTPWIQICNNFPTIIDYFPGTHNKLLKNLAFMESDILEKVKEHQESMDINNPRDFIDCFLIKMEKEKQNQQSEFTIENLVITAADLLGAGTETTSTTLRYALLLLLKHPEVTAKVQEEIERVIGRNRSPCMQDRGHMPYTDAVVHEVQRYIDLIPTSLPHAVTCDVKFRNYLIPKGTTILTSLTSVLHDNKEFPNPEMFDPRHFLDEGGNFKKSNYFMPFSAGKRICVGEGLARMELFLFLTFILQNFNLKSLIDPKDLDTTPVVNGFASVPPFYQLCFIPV
- Assay name: Inhibition of CYP2C19 (unknown origin) assessed as remaining activity relative to control
- Type: ADME
Readout: activity (%)
Enter your answer as a number in %; do not include the unit.

Prompt: Find the recorded activity belonging to CN1CCN(C(=O)COc2ccc(C(=O)/C=C/c3ccccc3C(F)(F)F)cc2)CC1.Cl and report it.
Response: 79.3

###

- Target: Keap1/Nrf2 (Homo sapiens, UniProt Q14145+Q16236)
- Sequence (Q16236 whole entry): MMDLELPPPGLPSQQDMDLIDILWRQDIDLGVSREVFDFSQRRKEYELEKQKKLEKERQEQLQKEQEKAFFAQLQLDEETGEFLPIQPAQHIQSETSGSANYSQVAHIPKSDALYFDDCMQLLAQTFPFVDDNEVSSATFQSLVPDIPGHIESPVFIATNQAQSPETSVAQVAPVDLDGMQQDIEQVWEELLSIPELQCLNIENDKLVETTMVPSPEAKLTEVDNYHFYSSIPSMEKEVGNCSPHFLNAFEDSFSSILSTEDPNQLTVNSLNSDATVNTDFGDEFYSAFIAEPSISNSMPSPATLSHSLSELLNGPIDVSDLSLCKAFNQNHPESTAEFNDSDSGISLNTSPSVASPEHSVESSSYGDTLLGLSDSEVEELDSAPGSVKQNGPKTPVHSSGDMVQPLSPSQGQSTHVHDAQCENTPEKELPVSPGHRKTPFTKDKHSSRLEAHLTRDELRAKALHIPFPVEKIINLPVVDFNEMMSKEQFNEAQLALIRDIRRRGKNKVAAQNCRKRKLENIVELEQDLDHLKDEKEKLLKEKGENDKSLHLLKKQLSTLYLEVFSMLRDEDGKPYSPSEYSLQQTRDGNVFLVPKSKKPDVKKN
- Sequence (Q14145 whole entry): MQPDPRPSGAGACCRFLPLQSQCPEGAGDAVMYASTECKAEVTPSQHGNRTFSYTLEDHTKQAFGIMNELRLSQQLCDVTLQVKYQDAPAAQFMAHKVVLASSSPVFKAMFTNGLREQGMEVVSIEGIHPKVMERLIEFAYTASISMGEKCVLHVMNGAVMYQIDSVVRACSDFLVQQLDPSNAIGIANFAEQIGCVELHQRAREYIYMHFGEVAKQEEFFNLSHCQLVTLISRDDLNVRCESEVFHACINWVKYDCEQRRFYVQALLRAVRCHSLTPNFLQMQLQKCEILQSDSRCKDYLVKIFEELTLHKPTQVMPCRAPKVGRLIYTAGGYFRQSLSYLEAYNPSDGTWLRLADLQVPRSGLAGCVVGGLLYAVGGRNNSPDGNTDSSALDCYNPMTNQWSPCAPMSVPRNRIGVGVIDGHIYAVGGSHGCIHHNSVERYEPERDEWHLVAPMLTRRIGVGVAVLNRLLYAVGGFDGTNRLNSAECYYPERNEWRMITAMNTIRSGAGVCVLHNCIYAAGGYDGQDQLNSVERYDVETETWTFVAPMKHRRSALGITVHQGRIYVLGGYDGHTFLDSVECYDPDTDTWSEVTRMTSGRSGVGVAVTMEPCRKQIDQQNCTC
- Assay name: Activation of NRF2 in human U2OS cells co-expressing Keap1 (unknown origin) assessed as induction of NRF2 translocation to nucleus incubated for 6 hrs by beta-galactosidase based chemiluminescent assay
Where a name gives a salt, the structure may show the parent alone.
Readout: EC50 (µM)
Enter your answer as a number in µM; do not include the unit.

Prompt: Find the recorded EC50 belonging to COC(=O)/C=C/C(=O)OC [DIMETHYL FUMARATE] and report it.
Response: 5.11

Prompt: Find the recorded EC50 belonging to CN(C)C(=O)COc1ccc(C(=O)/C=C/c2cccnc2)cc1 and report it.
Response: 1.46

Prompt: Find the recorded EC50 belonging to COc1ccccc1/C=C/C(=O)c1ccc(OCC(=O)N2CCOCC2)cc1 and report it.
Response: 1.77

Prompt: Find the recorded EC50 belonging to COc1ccccc1/C=C/C(=O)c1ccc(OCCCN2CCN(C)CC2)cc1 and report it.
Response: 3.33

Prompt: Find the recorded EC50 belonging to CN(C)C(=O)COc1ccc(C(=O)/C=C/c2ccncc2)cc1 and report it.
Response: 1.36

Prompt: Find the recorded EC50 belonging to O=C(/C=C/c1ccccc1Cl)c1ccc(OCCCN2CCCC2)cc1 and report it.
Response: 1.39

Prompt: Find the recorded EC50 belonging to COc1ccccc1/C=C/C(=O)c1ccc(OCC(=O)N2CCN(C)CC2)cc1 and report it.
Response: 1.91

Prompt: Find the recorded EC50 belonging to CN1CCN(C(=O)COc2ccc(C(=O)/C=C/c3ccccc3C(F)(F)F)cc2)CC1.Cl and report it.
Response: 0.63

Prompt: Find the recorded EC50 belonging to CN1CCN(C(=O)COc2ccc(C(=O)/C=C/c3ccccc3)cc2)CC1 and report it.
Response: 1.8

Prompt: Find the recorded EC50 belonging to O=C(/C=C/c1ccccc1Cl)c1cccc(OCCCN2CCOCC2)c1 and report it.
Response: 2.84

Prompt: Find the recorded EC50 belonging to COc1ccccc1/C=C/C(=O)c1cccc(OCCCN2CCOCC2)c1 and report it.
Response: 1.72

Prompt: Find the recorded EC50 belonging to COc1ccccc1/C=C/C(=O)c1ccc(OCCCN2CCOCC2)cc1 and report it.
Response: 1.63

Prompt: Find the recorded EC50 belonging to O=C(/C=C/c1cccc(C(F)(F)F)c1)c1ccc(OCCCN2CCOCC2)cc1 and report it.
Response: 2.06

Prompt: Find the recorded EC50 belonging to COc1ccc(/C=C/C(=O)c2ccc(OCCCN3CCOCC3)cc2)cc1 and report it.
Response: 6.97

Prompt: Find the recorded EC50 belonging to CN1CCN(C(=O)COc2ccc(C(=O)/C=C/c3ccccc3F)cc2)CC1 and report it.
Response: 1.54

Prompt: Find the recorded EC50 belonging to CN(C)C(=O)COc1ccc(C(=O)/C=C/c2ccccc2C(F)(F)F)cc1 and report it.
Response: 1.12

Prompt: Find the recorded EC50 belonging to COc1ccccc1/C=C/C(=O)c1ccc(OCCCN2CCCC2)cc1 and report it.
Response: 0.99

Prompt: Find the recorded EC50 belonging to COc1ccccc1/C=C/C(=O)c1ccccc1OCCCN1CCOCC1 and report it.
Response: 5.52

Prompt: Find the recorded EC50 belonging to O=C(/C=C/c1ccc(C(F)(F)F)cc1)c1ccc(OCCCN2CCOCC2)cc1 and report it.
Response: 2.43

Prompt: Find the recorded EC50 belonging to CN(C)C(=O)COc1ccc(C(=O)/C=C/c2ccccn2)cc1 and report it.
Response: 1.1

Prompt: Find the recorded EC50 belonging to O=C(/C=C/c1ccccc1C(F)(F)F)c1cccc(OCCCN2CCOCC2)c1 and report it.
Response: 2.3

Prompt: Find the recorded EC50 belonging to O=C(/C=C/c1ccccc1C(F)(F)F)c1ccc(OCCCN2CCOCC2)cc1 and report it.
Response: 1.36

###

- Assay name: Stability in human plasma assessed as compound remaining after 30 mins
- Assay type: ADME, cell-free
- Test context: read-out: Stability
Readout: remaining at 0.5 h

Prompt: Find the recorded remaining at 0.5 h belonging to CN1CCN(C(=O)COc2ccc(C(=O)/C=C/c3ccccc3C(F)(F)F)cc2)CC1.Cl and report it.
Response: > 100%

###

- Assay name: Stability in rat plasma assessed as compound remaining after 30 mins
- Assay type: ADME, cell-free
- Test context: read-out: Stability
Readout: remaining at 0.5 h

Prompt: Find the recorded remaining at 0.5 h belonging to CN1CCN(C(=O)COc2ccc(C(=O)/C=C/c3ccccc3C(F)(F)F)cc2)CC1.Cl and report it.
Response: 99.3%

###

- Target: CYP2C9 (Homo sapiens)
- Sequence (P11712 whole entry): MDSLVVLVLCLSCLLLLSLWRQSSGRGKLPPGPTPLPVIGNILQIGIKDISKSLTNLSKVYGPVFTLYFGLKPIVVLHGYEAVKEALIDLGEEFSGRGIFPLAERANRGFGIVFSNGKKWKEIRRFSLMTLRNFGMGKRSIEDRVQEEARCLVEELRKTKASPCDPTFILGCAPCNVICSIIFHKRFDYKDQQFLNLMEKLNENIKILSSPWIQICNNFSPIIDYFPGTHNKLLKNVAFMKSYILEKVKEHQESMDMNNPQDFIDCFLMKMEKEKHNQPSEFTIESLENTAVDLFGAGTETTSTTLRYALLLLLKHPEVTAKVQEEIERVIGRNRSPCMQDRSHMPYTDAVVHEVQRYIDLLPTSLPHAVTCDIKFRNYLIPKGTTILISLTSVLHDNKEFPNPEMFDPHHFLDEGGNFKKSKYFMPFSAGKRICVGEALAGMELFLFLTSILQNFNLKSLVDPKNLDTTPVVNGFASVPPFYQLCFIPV
- Assay name: Inhibition of CYP2C9 (unknown origin) assessed as remaining activity relative to control
- Type: ADME
Readout: activity (%)
Enter your answer as a number in %; do not include the unit.

Prompt: Find the recorded activity belonging to CN1CCN(C(=O)COc2ccc(C(=O)/C=C/c3ccccc3C(F)(F)F)cc2)CC1.Cl and report it.
Response: 95.1

###

- Target: Keap1/Nrf2 (Homo sapiens, UniProt Q14145+Q16236)
- Assay name: Activation of NRF2 in human U2OS cells co-expressing Keap1 (unknown origin) assessed as induction of NRF2 translocation to nucleus incubated for 6 hrs by beta-galactosidase based chemiluminescent assay
Readout: pEC50
When answering, recall that pEC50 equals minus log10 of the concentration in mol/L, and write that number alone.

Prompt: Find the recorded pEC50 belonging to CN1CCN(C(=O)COc2ccc(C(=O)/C=C/c3ccccc3Cl)cc2)CC1 and report it.
Response: 6.01

Prompt: Find the recorded pEC50 belonging to COc1cccc(/C=C/C(=O)c2ccc(OCCCN3CCOCC3)cc2)c1 and report it.
Response: 5.59

Prompt: Find the recorded pEC50 belonging to O=C(/C=C/c1ccccc1C(F)(F)F)c1ccc(OCC(=O)N2CCOCC2)cc1 and report it.
Response: 5.97

Prompt: Find the recorded pEC50 belonging to COc1ccccc1/C=C/C(=O)c1ccc(OCC(=O)N(C)C)cc1 and report it.
Response: 5.84

Prompt: Find the recorded pEC50 belonging to O=C(/C=C/c1ccccc1Cl)c1ccc(OCCCN2CCOCC2)cc1 and report it.
Response: 5.62

Prompt: Find the recorded pEC50 belonging to O=C(/C=C/c1ccccn1)c1ccc(OCC(=O)N2CCOCC2)cc1 and report it.
Response: 5.91
